Each recorded value in this set is attributed to ChEMBL document CHEMBL4616724.

Experiment: Oral bioavailability in rat at 10 mg/kg measured up to 24 hrs by LC-MS/MS analysis
Assay type: ADME, organism-based
Conditions: in vivo
experimental.endpoint: bioavailability (%)
Answer with a number only, understood to be in %.

Recorded bioavailability for Cc1c(N2CC3CC3(N)C2)c(F)cc2c(CN)c(F)c(=O)n(C3CC3)c12 (stereo unspecified) , please? 15

----------
Experiment: Volume of distribution at steady state in mouse at 5 mg/kg, iv or po measured up to 24 hrs by LC-MS/MS analysis
Assay type: ADME, organism-based
Details: in vivo, read-out: Vdss
experimental.endpoint: Vd (L/kg)
Answer with a number only, understood to be in L/kg.

Recorded Vd for Cc1c(N2CC3CC3(N)C2)c(F)cc2c(CN)c(F)c(=O)n(C3CC3)c12 (stereo unspecified) , please? 5.1

----------
Molecular target: Voltage-gated inwardly rectifying potassium channel KCNH2 (Homo sapiens, UniProt Q12809)
Sequence (Q12809 whole entry): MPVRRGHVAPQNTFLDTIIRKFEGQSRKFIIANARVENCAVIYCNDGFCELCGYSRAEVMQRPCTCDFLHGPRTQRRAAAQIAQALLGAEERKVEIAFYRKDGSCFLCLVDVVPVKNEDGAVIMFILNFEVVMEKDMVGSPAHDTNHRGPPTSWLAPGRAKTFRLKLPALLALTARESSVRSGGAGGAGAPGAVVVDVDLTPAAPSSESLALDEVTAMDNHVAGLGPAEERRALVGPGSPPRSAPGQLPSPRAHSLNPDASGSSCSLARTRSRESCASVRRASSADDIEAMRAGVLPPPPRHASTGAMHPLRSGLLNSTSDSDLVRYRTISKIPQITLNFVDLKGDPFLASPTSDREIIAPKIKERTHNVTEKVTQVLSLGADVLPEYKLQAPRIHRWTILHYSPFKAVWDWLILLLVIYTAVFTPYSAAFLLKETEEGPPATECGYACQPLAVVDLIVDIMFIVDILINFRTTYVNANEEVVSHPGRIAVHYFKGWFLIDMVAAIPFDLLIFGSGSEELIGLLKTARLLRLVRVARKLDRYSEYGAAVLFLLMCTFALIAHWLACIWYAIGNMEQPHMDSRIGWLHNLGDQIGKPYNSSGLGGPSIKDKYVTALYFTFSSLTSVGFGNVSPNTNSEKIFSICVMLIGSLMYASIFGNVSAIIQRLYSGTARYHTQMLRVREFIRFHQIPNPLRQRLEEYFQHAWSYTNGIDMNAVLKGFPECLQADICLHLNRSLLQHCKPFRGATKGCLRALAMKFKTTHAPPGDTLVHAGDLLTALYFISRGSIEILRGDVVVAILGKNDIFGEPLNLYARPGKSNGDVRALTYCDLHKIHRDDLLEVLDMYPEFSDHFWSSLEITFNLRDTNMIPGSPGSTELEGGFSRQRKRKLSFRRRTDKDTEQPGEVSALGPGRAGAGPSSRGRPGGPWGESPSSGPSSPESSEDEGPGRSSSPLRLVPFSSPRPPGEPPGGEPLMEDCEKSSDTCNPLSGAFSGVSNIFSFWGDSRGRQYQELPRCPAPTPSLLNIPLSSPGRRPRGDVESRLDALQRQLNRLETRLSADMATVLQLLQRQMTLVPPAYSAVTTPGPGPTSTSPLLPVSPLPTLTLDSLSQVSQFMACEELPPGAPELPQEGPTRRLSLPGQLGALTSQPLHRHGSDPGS
Test: Inhibition of human ERG expressed in CHOK1 cells measured for 10 mins by QPatch automated patch-clamp assay
Format: cell-based, CHO-K1
experimental.endpoint: pIC50
Scale note: pIC50 = -log10(concentration in M).

Record Cc1c(N2CC3CC3(N)C2)c(F)cc2c(CN)c(F)c(=O)n(C3CC3)c12 (stereo unspecified) : what is its pIC50 with Voltage-gated inwardly rectifying potassium channel KCNH2 (Homo sapiens, UniProt Q12809)? 3.94

----------
Assay: Terminal half life in mouse at 5 mg/kg, iv measured up to 24 hrs by LC-MS/MS analysis
Type: ADME, organism-based
Conditions: in vivo, read-out: beta t1/2 (converted)
experimental.endpoint: half-life (h)
Answer with a number only, understood to be in h.

Recorded half-life for Cc1c(N2CC3CC3(N)C2)c(F)cc2c(CN)c(F)c(=O)n(C3CC3)c12 (stereo unspecified) , please? 1.7

----------
Test system: K562
Test: Cytotoxicity against human K562 cells assessed as reduction in cell viability after 72 hrs by Cell-titer Glo assay
Type: cell-based
Settings: K562, 72 h
experimental.endpoint: EC50 (µM)
Answer with a number only, understood to be in µM.

Recorded EC50 for Cc1c(N2CC3CC3(N)C2)c(F)cc2c(CN)c(F)c(=O)n(C3CC3)c12 (stereo unspecified) , please? 40

----------
Assign logD to each entry below.
Assay: n-Octanol-PBS buffer partition coefficient, log D of the compound at pH 7.4 after overnight incubation by LC/UV/qTOF analysis
Type: physicochemical
# output: bare number, no unit

Recorded logD for Cc1c(N2CC[C@@H]([C@H](C)N)C2)c(F)cc2ccc(=O)n(C3CC3)c12 , please? 0.74

Another: Cc1c(N2CC[C@@H]([C@H](C)N)C2)c(F)cc2c(CN)cc(=O)n(C3CC3)c12 -0.29

Another: Cc1c(N2CC3CC3(N)C2)c(F)cc2c(CN)c(F)c(=O)n(C3CC3)c12 (stereo not drawn) 1.1

----------
Assay: Protein binding in Sprague-Dawley rat plasma at 10 uM incubated for 4 hrs under shaking condition by LC-MS/MS analysis
Format: ADME, cell-free
Conditions: read-out: PPB (converted)
Assign fraction unbound at 4 h, 10 µM to each entry below.
# output: bare number, no unit

Recorded fraction unbound at 4 h, 10 µM for Cc1c(N2CC[C@@H]([C@H](C)N)C2)c(F)cc2c(CN)cc(=O)n(C3CC3)c12 , please? 0.82

Another: Cc1c(N2CC3CC3(N)C2)c(F)cc2c(CN)c(F)c(=O)n(C3CC3)c12 (stereo not drawn) 0.42

Another: Cc1c(N2CC[C@@H]([C@H](C)N)C2)c(F)cc2ccc(=O)n(C3CC3)c12 0.25

----------
Assign MIC to each entry below.
System: Pseudomonas aeruginosa
Experiment: Antibacterial activity against Pseudomonas aeruginosa NB52023 harboring gyrA T83I mutant/ParC S87L mutant by CLSI-based broth microdilution assay
Format: functional
Answer with a number only, understood to be in µg/mL.

Recorded MIC for Cc1c(N2CC[C@@H]([C@H](C)N)C2)c(F)cc2cc(C(=O)O)c(=O)n(C3CC3)c12 , please? 64

Another: Cc1c(N2CCC3CC3(N)C2)c(F)cc2c(CN)cc(=O)n(C3CC3)c12 (stereo not given) 16

Another: Cc1c(-c2cc(F)c(N)cc2F)c(F)cc2c(CN)cc(=O)n(C3CC3)c12 8

Another: NCc1cc(=O)n(C2CC2)c2cc(N3CC4CC4(N)C3)c(F)cc12 (stereo not given) 4

Another: Cc1c(N2C[C@@]3(C)C[C@@]3(N)C2)c(F)cc2c(CN)cc(=O)n(C3CC3)c12 (racemic) 2

----------
Target: Voltage-gated inwardly rectifying potassium channel KCNH2 (Homo sapiens, UniProt Q12809)
Test: Inhibition of human ERG expressed in CHOK1 cells by QPatch automated patch-clamp assay
Type: cell-based, CHO-K1
experimental.endpoint: IC50

Recorded IC50 for Cc1c(N2CC[C@@H]([C@H](C)N)C2)c(F)cc2c(CN)cc(=O)n(C3CC3)c12 , please? > 300 µM

----------
Assay: Tmax in mouse at 5 mg/kg, po measured up to 24 hrs by LC-MS/MS analysis
Format: ADME, organism-based
Details: in vivo
experimental.endpoint: Tmax (min)
Answer with a number only, understood to be in min.

Recorded Tmax for Cc1c(N2CC3CC3(N)C2)c(F)cc2c(CN)c(F)c(=O)n(C3CC3)c12 (stereo unspecified) , please? 30

----------
Assay: Efflux ratio of apparent permeability in human Caco2 cells at 10 uM after 2 hrs by LC-MS/MS analysis
Type: ADME, cell-based
Details: Caco-2
experimental.endpoint: efflux ratio at 2 h, 10 µM
# output: bare number, no unit

Recorded efflux ratio at 2 h, 10 µM for Cc1c(N2CC[C@@H]([C@H](C)N)C2)c(F)cc2c(CN)cc(=O)n(C3CC3)c12 , please? 18

Another: Cc1c(N2CC3CC3(N)C2)c(F)cc2c(CN)c(F)c(=O)n(C3CC3)c12 (configuration not stated) 1.8

----------
Experiment: Volume of distribution at steady state in rat at 5 mg/kg, iv or 10 mg/kg, po measured up to 24 hrs by LC-MS/MS analysis
Format: ADME, organism-based
Details: in vivo, read-out: Vdss
experimental.endpoint: Vd (L/kg)
Answer with a number only, understood to be in L/kg.

Recorded Vd for Cc1c(N2CC3CC3(N)C2)c(F)cc2c(CN)c(F)c(=O)n(C3CC3)c12 (stereo unspecified) , please? 24.1

----------
Assign Tmax to each entry below.
Test: Tmax in rat at 10 mg/kg, po measured up to 24 hrs by LC-MS/MS analysis
Type: ADME, organism-based
Details: in vivo
Answer with a number only, understood to be in min.

Recorded Tmax for O=C(O)c1cn(C2CC2)c2cc(N3CCNCC3)c(F)cc2c1=O [CIPROFLOXACIN] , please? 30

Another: Cc1c(N2CC3CC3(N)C2)c(F)cc2c(CN)c(F)c(=O)n(C3CC3)c12 (configuration not stated) 78

----------
Test system: NIH3T3
Assay: Phototoxicity against BALB/c mouse 3T3 cells assessed as reduction in cell viability preincubated for 1 hr followed by 5 J/cm2 UVA sunlight irradiation for 50 mins and subsequent replacement of medium and measured after 24 hrs by neutral red uptake assay
Type: cell-based
Conditions: NIH3T3, light or radiation study
experimental.endpoint: IC50 (µM)
Answer with a number only, understood to be in µM.

Recorded IC50 for Cc1c(N2CC3CC3(N)C2)c(F)cc2c(CN)cc(=O)n(C3CC3)c12 (stereo not drawn) , please? 3.03

Another: Cc1c(N2CC[C@H](N)C2)c(F)cc2c(CN)cc(=O)n(C3CC3)c12 288

Another: Cc1c(N2CC3CC3(N)C2)c(F)cc2c(CN)c(F)c(=O)n(C3CC3)c12 (stereo not drawn) 1.61

----------
Experiment: Intrinsic clearance in human liver microsomes at 1 uM in presence of NADPH and measured up to 30 mins by LC-MS/MS analysis
Format: ADME, Microsome
Settings: read-out: CLH
experimental.endpoint: microsomal CLint at 1 µM (µL/min/mg)
Answer with a number only, understood to be in µL/min/mg.

Recorded microsomal CLint at 1 µM for Cc1c(N2CC[C@@H]([C@H](C)N)C2)c(F)cc2c(CN)cc(=O)n(C3CC3)c12 , please? 14

Another: Cc1c(N2CC3CC3(N)C2)c(F)cc2c(CN)c(F)c(=O)n(C3CC3)c12 (stereo not drawn) 18

----------
Assay: Photoirradiation factor, ratio of IC50 for BALB/c mouse 3T3 cells under dark condition to IC50 for BALB/c mouse 3T3 cells under 5 J/cm2 sunlight irradiation by neutral red uptake assay
Assay type: ADME, cell-based, NIH3T3
Details: BALB/c 3T3 cells, read-out: Ratio IC50
Assign selectivity ratio to each entry below.
# output: bare number, no unit

Recorded selectivity ratio for Cc1c(N2CC3CC3(N)C2)c(F)cc2c(CN)c(F)c(=O)n(C3CC3)c12 (centres undefined) , please? 621

Another: Cc1c(N2CC[C@H](N)C2)c(F)cc2c(CN)cc(=O)n(C3CC3)c12 1.7

Another: Cc1c(N2CC3CC3(N)C2)c(F)cc2c(CN)cc(=O)n(C3CC3)c12 (centres undefined) 104
